Taken from patent US9399649B2.

Hi there, I'd appreciate the recorded melting point for every entry that follows.

In: For the molecule "COCCN1CC=C(c2ccc3cc(-c4cn5cc(C)nc(C)c5n4)oc(=O)c3c2)CC1" , report melting point.
Out: 174 to 176 °C

In: For the molecule "Cc1cn2cc(-c3cc4ccc(N5CCN(C)CC5)cc4c(=O)o3)nc2cn1" , report melting point.
Out: 279 to 285 °C

In: For the molecule "Cc1cn2cc(-c3cc4ccc(N5CCN(C)[C@H](C)C5)cc4c(=O)o3)nc2cn1" , report melting point.
Out: 243 to 248 °C

In: For the molecule "Cc1cn2cc(-c3cc4ccc(N5C[C@@H](C)N(C)[C@@H](C)C5)cc4c(=O)o3)nc2cn1" , report melting point.
Out: 279 to 284 °C

---

Hi there, I'd appreciate the recorded melting point for every entry that follows.

In: For the compound "CCc1nc(C)cn2cc(-c3cc4ccc(N5CCN[C@H](C)C5)cc4c(=O)o3)nc12" , report melting point.
Out: 208 to 213 °C

In: For the compound "CCc1nc(C)cn2cc(-c3cc4ccc(C5=CCNCC5)cc4c(=O)o3)nc12" , report melting point.
Out: 239 to 241 °C

In: For the compound "Cc1cn2cc(-c3cc4ccc(N5CCN(C)[C@H](C)C5)cc4c(=O)o3)nc2c(C)n1" , report melting point.
Out: 252 to 254 °C

In: For the compound "Cc1cn2cc(-c3cc4ccc(C5=CCNCC5)cc4c(=O)o3)nc2c(C)n1" , report melting point.
Out: 266 °C (dec.)

In: For the compound "COc1ccccc1-c1cc2ccc(N3CCN(C)CC3)cc2c(=O)o1" , report melting point.
Out: 118 to 120 °C

In: For the compound "O=c1oc(-c2cc(F)cc(F)c2)cc2ccc(N3CCNCC3)cc12" , report melting point.
Out: 200 to 202 °C

In: For the compound "Cc1cn2cc(-c3cc4ccc(N5CCN(C(C)C)[C@H](C)C5)cc4c(=O)o3)nc2c(C)n1" , report melting point.
Out: 262 to 267 °C

In: For the compound "Cc1nc2ccc(-c3cc4ccc(N5CCN(C6COC6)CC5)cc4c(=O)o3)cc2s1" , report melting point.
Out: 222 to 228 °C

In: For the compound "CCCN1CCN(c2ccc3cc(-c4cn5cc(C)nc(C)c5n4)oc(=O)c3c2)C[C@@H]1C" , report melting point.
Out: 249 to 254 °C

In: For the compound "COc1ccc(F)cc1-c1cc2ccc(N3CCN[C@@H](C)C3)cc2c(=O)o1" , report melting point.
Out: 115 to 117 °C

In: For the compound "Cc1cn2cc(-c3cc4ccc(C5=CCN(C(C)C)CC5)cc4c(=O)o3)nc2c(C)n1" , report melting point.
Out: 259 to 261 °C

In: For the compound "Cc1cn2cc(-c3cc4ccc(N5CCC(O)CC5)cc4c(=O)o3)nc2c(C)n1" , report melting point.
Out: 290 to 292 °C

In: For the compound "CCN1CC=C(c2ccc3cc(-c4cn5cc(C)nc(C)c5n4)oc(=O)c3c2)CC1" , report melting point.
Out: 227 to 229 °C

In: For the compound "CN1CCN(c2ccc3cc(-c4ccc5c(c4)OCO5)oc(=O)c3c2)CC1" , report melting point.
Out: 297 to 299 °C

In: For the compound "Cc1cn2cc(-c3cc4ccc(N5CCN6CCC[C@@H]6C5)cc4c(=O)o3)cc2c(C)n1" , report melting point.
Out: 218 to 220 °C

---

Hi there, I'd appreciate the recorded melting point for every entry that follows.

In: For the molecule "Cc1cn2cc(-c3cc4ccc(N5CCN(C(C)C)[C@@H](C)C5)cc4c(=O)o3)nc2c(C)n1" , report melting point.
Out: 266 to 271 °C

In: For the molecule "COc1ccc(-c2cc3ccc(N4CCN[C@@H](C)C4)cc3c(=O)o2)cc1F" , report melting point.
Out: 209 to 211 °C

In: For the molecule "Cc1nc2ccc(-c3cc4ccc(N5CCN(C)CC5)cc4c(=O)o3)cc2s1" , report melting point.
Out: 231 to 236 °C
